tested system: Poly [ADP-ribose] polymerase 1 (Homo sapiens)
Sequence (P09874 whole entry): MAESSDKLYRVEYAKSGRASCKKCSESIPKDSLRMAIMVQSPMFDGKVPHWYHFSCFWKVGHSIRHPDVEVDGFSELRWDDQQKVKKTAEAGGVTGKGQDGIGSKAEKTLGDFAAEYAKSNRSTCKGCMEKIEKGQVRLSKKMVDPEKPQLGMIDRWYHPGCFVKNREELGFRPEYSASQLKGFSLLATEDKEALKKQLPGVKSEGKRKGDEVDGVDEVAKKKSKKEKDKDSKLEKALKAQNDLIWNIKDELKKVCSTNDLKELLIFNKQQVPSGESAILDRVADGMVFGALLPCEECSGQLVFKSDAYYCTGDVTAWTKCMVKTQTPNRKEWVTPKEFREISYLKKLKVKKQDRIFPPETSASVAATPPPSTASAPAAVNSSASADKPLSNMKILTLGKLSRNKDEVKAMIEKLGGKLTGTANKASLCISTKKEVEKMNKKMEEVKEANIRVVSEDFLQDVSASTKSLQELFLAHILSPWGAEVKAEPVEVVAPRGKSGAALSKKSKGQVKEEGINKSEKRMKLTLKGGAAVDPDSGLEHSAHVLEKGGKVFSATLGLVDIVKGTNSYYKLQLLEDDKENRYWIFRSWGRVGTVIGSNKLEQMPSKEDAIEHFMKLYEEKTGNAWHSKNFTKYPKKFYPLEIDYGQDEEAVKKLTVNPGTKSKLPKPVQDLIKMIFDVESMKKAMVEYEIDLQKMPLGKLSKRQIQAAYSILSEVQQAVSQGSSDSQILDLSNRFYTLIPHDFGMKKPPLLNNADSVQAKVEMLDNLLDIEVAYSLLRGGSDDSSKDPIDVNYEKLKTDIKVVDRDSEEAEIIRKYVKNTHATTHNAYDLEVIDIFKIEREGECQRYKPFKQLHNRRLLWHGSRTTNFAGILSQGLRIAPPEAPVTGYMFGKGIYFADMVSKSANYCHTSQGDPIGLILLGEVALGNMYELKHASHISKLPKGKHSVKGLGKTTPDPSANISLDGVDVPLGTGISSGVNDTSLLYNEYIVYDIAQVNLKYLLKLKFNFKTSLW
assay method text: Inhibition of recombinant human GST-tagged PARP1 expressed in Escherichia coli using damaged DNA as substrate after 30 mins in presence of NAD+ by resazurin dye based fluorescence assay
measurement parameters: read-out: IC50
reported property: log10 IC50 (log10 of the value in µM)
On a log10 scale: recorded IC50, unit µM.

Completed entries (count: 5):
| line notation | quantitative result |
| --- | --- |
| COc1ccc(F)cc1/C=C/c1nnc(-c2cccc3c(=O)c4ccccc4c(=O)[nH]c23)o1 | -0.02 |
| O=c1[nH]c2c(-c3nnc(/C=C/c4ccccc4)o3)cccc2c(=O)c2ccccc12 | -0.40 |
| O=c1[nH]c2c(-c3nnc(COc4ccccc4)o3)cccc2c(=O)c2ccccc12 | -1.00 |
| O=c1[nH]c2c(-c3nnc(-c4ccccc4Cl)o3)cccc2c(=O)c2ccccc12 | 0.04 |
| COc1ccc(Br)cc1/C=C/c1nnc(-c2cccc3c(=O)c4ccccc4c(=O)[nH]c23)o1 | -1.33 |

Kindly indicate its recorded log10 IC50. Item: `Cc1cc(-c2nnc(-c3ccccc3Cl)o2)c2[nH]c(=O)c3ccccc3c(=O)c2c1`
-1.29

Kindly indicate its recorded log10 IC50. Item: `Cc1cc(-c2nnc(-c3ccccc3)o2)c2[nH]c(=O)c3ccccc3c(=O)c2c1`
-0.56

Kindly indicate its recorded log10 IC50. Item: `O=C(NCc1nnc(-c2cccc3c(=O)c4ccccc4c(=O)[nH]c23)o1)c1ccccc1Cl`
-0.13

Kindly indicate its recorded log10 IC50. Item: `COc1c(Br)cc(Br)cc1/C=C/c1nnc(-c2cccc3c(=O)c4ccccc4c(=O)[nH]c23)o1`
-1.60

Kindly indicate its recorded log10 IC50. Item: `COc1ccccc1/C=C/c1nnc(-c2cccc3c(=O)c4ccccc4c(=O)[nH]c23)o1`
-0.87

Kindly indicate its recorded log10 IC50. Item: `Cc1cc(-c2nnc(/C=C/c3ccccc3)o2)c2[nH]c(=O)c3ccccc3c(=O)c2c1`
-0.35

Kindly indicate its recorded log10 IC50. Item: `Cc1cc(-c2nnc(CNC(=O)c3ccccc3)o2)c2[nH]c(=O)c3ccccc3c(=O)c2c1`
-0.52

Kindly indicate its recorded log10 IC50. Item: `O=C(NCc1nnc(-c2cccc3c(=O)c4ccccc4c(=O)[nH]c23)o1)c1ccccc1`
0.10

Kindly indicate its recorded log10 IC50. Item: `COc1ccccc1/C=C/c1nnc(-c2cc(C)cc3c(=O)c4ccccc4c(=O)[nH]c23)o1`
-0.83

Kindly indicate its recorded log10 IC50. Item: `COc1ccc(Cl)cc1/C=C/c1nnc(-c2cccc3c(=O)c4ccccc4c(=O)[nH]c23)o1`
0.10

Kindly indicate its recorded log10 IC50. Item: `COc1ccc(F)cc1/C=C/c1nnc(-c2cc(C)cc3c(=O)c4ccccc4c(=O)[nH]c23)o1`
0.02

Kindly indicate its recorded log10 IC50. Item: `COc1c(Br)cc(Br)cc1/C=C/c1nnc(-c2cc(C)cc3c(=O)c4ccccc4c(=O)[nH]c23)o1`
-0.03

Kindly indicate its recorded log10 IC50. Item: `COc1ccc(Cl)cc1/C=C/c1nnc(-c2cc(C)cc3c(=O)c4ccccc4c(=O)[nH]c23)o1`
0.08
